- Test Summary: Inhibition of Bocillin FL binding to PBP5 in Escherichia coli MC4100 membranes
- Type: cell membranes
Give measured IC50 for each item. Keep answers brief.

Guide cases for IC50, answers given:
C[C@@H](O)[C@H]1C(=O)N2C(C(=O)O)=C(S[C@@H]3CN[C@H](CNS(N)(=O)=O)C3)[C@H](C)[C@H]12    4 µg/mL
C[C@@H](O)[C@H]1C(=O)N2C(C(=O)O)=C(SCCNC=N)C[C@H]12 [IMIPENEM ANHYDROUS]    0.4 µg/mL
C[C@H]1[C@H](NC(=O)/C(=N\OC(C)(C)C(=O)O)c2csc(N)n2)C(=O)N1S(=O)(=O)O    > 8 µg/mL
CC(C)(O/N=C(\C(=O)N[C@@H]1C(=O)N2C(C(=O)[O-])=C(C[n+]3ccccc3)CS[C@H]12)c1csc(N)n1)C(=O)O    > 4 µg/mL

Here is another compound to look at.
get_value(item= C[C@@H](O)[C@H]1C(=O)N2C(C(=O)O)=C(S[C@@H]3CN[C@H](C(=O)N(C)C)C3)[C@H](C)[C@H]12 , readout=IC50) returns 4 µg/mL
